Experiment: High-throughput drug toxicity screening in the BPDCN cell line Gen2.2 (AID 1224824);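 further: cells exposed to compounds for 48 h before reading; 100% = DMSO and 0% = bortezomib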
Condition: Gen2.2 BPDCN cells; at 45.8 µM (top of the series) unless noted
Assay readout: cell viability, % of control (lower = more cytotoxic) (%)
# unit: % | format: bare number

Exercise: Consider the compound C=CC1=C(C(=O)O)N2C(=O)[C@@H](NC(=O)C(=NO)c3csc(N)n3)[C@H]2SC1 . State its measured cell viability, % of control (lower = more cytotoxic).
Solution: 116

Exercise: Consider the compound CC(C)OC(=O)[C@H](C)N[P@](=O)(OC[C@H]1O[C@@H](n2ccc(=O)[nH]c2=O)[C@](C)(F)[C@H]1O)Oc1ccccc1 . State its measured cell viability, % of control (lower = more cytotoxic).
Solution: 128

Exercise: Consider the compound NC(=NCCCCCCN=C(N)N=C(N)Nc1ccc(Cl)cc1)N=C(N)Nc1ccc(Cl)cc1 . State its measured cell viability, % of control (lower = more cytotoxic).
Solution: 6.22

Exercise: Consider the compound CCOC(=O)C1=C(C)NC(=S)NC1c1cccc(O)c1 (stereo not drawn) . State its measured cell viability, % of control (lower = more cytotoxic).
Solution: 48.9

Exercise: Consider the compound CC(=O)OCC(=O)[C@@]1(O)CC[C@H]2[C@@H]3CCC4=CC(=O)CC[C@]4(C)[C@@H]3C(=O)C[C@@]21C . State its measured cell viability, % of control (lower = more cytotoxic).
Solution: 108

New cases:
Exercise: Consider the compound O=C(NCc1ccccc1)[C@H](Cc1ccccc1)NC(=O)[C@@H]1O[C@@H]1C(=O)NCCc1ccc(O)cc1 . State its measured cell viability, % of control (lower = more cytotoxic).
Solution: 49

Exercise: Consider the compound CCS(=O)(=O)Nc1ccc2[nH]c(O)c(C(=Nc3ccc(CN4CCCCC4)cc3)c3ccccc3)c2c1 . State its measured cell viability, % of control (lower = more cytotoxic).
Solution: 2.51

Exercise: Consider the compound C=CC(=O)N1CCc2ccc(-n3c(=O)ccc4cnc5ccc(-c6cnn(C)c6)cc5c43)cc21 . State its measured cell viability, % of control (lower = more cytotoxic).
Solution: 1.99

====

Experiment: Quantitative High-Throughput drug screen in 47 multiple myeloma cell lines against the NCATS MIPE library collection: ARP1_JJKsccF8 cell viability assay (AID 1918928; further: nearly all actives have a fitted effect of over 40% in size; further: potency means the concentration at half of the fitted maximal effect;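 on viability: 100% = DMSO only wells and 0% = medium only wells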)
Condition: ARP1 myeloma cells viability, CellTiter-Glo ATP, 48 h; series mostly up to 45.8 µM
Inconclusive results are not listed. Activity calls are given as the source filed them. Calls come from the whole dose curve; as a rule, active = well fitted cell-killing curve with a large enough effect; inconclusive = small, poorly fitted or top-dose-only effect, or effect the other way; inactive = no such curve, though single readings can be large or run the other way.
Assay readout: Potency

Worked examples, 5 molecules total:
Exercise: Consider the molecule CCC[C@H]1C[C@H](C(=O)N[C@@H]([C@@H]2O[C@@H](SC)[C@@H](O)[C@@H](O)[C@@H]2O)[C@H](C)Cl)N(C)C1 . State its measured Potency.
Solution: inactive

Exercise: Consider the molecule NC[C@H]1O[C@H](O[C@H]2[C@@H](O)[C@@H](O[C@H]3O[C@H](CO)[C@@H](O)[C@H](N)[C@@H]3O)[C@H](N)C[C@@H]2N)[C@H](N)C[C@H]1O . State its measured Potency.
Solution: inactive

Exercise: Consider the molecule COc1cc(C=CC(=O)CC(=O)C=Cc2ccc(O)c(OC)c2)ccc1O . State its measured Potency.
Solution: 8.55 µM (active)

Exercise: Consider the molecule CC(C)(O)CC[C@@H](O)[C@](C)(O)[C@H]1CC[C@@]2(O)C3=CC(=O)[C@@H]4C[C@@H](O)[C@@H](O)C[C@]4(C)[C@@H]3CC[C@]12C . State its measured Potency.
Solution: inactive

Exercise: Consider the molecule O=C(O)[C@H](CC(=O)N1C[C@@H]2CCCC[C@H]2C1)Cc1ccccc1 . State its measured Potency.
Solution: inactive

New cases:
Exercise: Consider the molecule O=C(O)C(=O)Nc1cccc(C2=NN=N[N]2)c1 . State its measured Potency.
Solution: inactive

Exercise: Consider the molecule Cn1cc(C[C@@H](N)C(=O)O)c2ccccc21 . State its measured Potency.
Solution: inactive

Exercise: Consider the molecule Cc1cnc(Nc2ccc(CN3CCOCC3)cc2)nc1Nc1cccc(S(=O)(=O)NC(C)(C)C)c1 . State its measured Potency.
Solution: 3.32 µM (active)

Exercise: Consider the molecule C=CC1=C(C(=O)O)N2C(=O)[C@@H](NC(=O)C(=NO)c3csc(N)n3)[C@H]2SC1 . State its measured Potency.
Solution: inactive
